- method: qHTS profiling of the MIPE4 collection as inhibitors of Plasmodium falciparum (3D7) proliferation (AID 743344);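 further: scaled between DMSO vehicle wells and 0.29 µM artemisinin as full inhibition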
- details: P. falciparum 3D7 in erythrocytes, SYBR Green DNA fluorescence, 72 h; at 28.5 µM
The following molecules are listed with their measured parasite growth, % of DMSO control values.

{"molecule": "CC1(C)O[C@@H]2[C@H]3OC(C)(C)O[C@]3(COS(N)(=O)=O)OC[C@H]2O1", "parasite growth, % of DMSO control": "103%"}
{"molecule": "CC(C)(C)OC(=O)N[C@@H](Cc1ccc(O[S+](=O)([O-])c2cccc3cnccc23)cc1)C(=O)Nc1ccc(-c2ccccc2)cc1", "parasite growth, % of DMSO control": "5.81%"}
{"molecule": "C[C@H]1C[C@H]2C3CCC4=CC(=O)C=C[C@@]4(C)[C@@]3(Cl)[C@@H](O)CC2(C)[C@@]1(OC(=O)c1ccco1)C(=O)CCl (stereo partly drawn)", "parasite growth, % of DMSO control": "5.13%"}
{"molecule": "CC(=O)NCC1CN(c2ccc(N3CCOCC3)c(F)c2)C(=O)O1 (stereo not drawn)", "parasite growth, % of DMSO control": "91.2%"}
{"molecule": "COc1ccc(S(=O)(=O)N(CCO)c2ccccc2CN(C)CC=Cc2ccc(Cl)cc2)cc1", "parasite growth, % of DMSO control": "6.17%"}
{"molecule": "C[C@H]1CCN(C(=O)CC#N)C[C@H]1N(C)c1ncnc2[nH]ccc12", "parasite growth, % of DMSO control": "69.9%"}
{"molecule": "C[C@H]1Cc2c([nH]c3cc(Cl)c(F)cc23)[C@@]2(N1)C(=O)Nc1ccc(Cl)cc12", "parasite growth, % of DMSO control": "5.02%"}
{"molecule": "CO[C@H]1C=CO[C@@]2(C)Oc3c(C)c(O)c4c(O)c(c(C=NN5CCN(C)CC5)c(O)c4c3C2=O)NC(=O)C(C)=CC=CC(C)[C@H](O)[C@@H](C)[C@@H](O)[C@@H](C)[C@@H](OC(C)=O)[C@H]1C (stereo partly drawn)", "parasite growth, % of DMSO control": "4.07%"}
{"molecule": "CCOc1ccc(F)cc1C1(O)C(N)=Nc2ccc(Cl)cc21 (stereo not drawn)", "parasite growth, % of DMSO control": "5.08%"}
{"molecule": "CN(C(=O)OC(C)(C)C)[C@@H](Cc1ccc(O[S+](=O)([O-])c2cccc3cnccc23)cc1)C(=O)N1CCN(C(=O)OCc2ccccc2)CC1", "parasite growth, % of DMSO control": "5.7%"}
{"molecule": "CCCC[C@@H]1C[C@@H](C(=O)NC([C@H](C)Cl)[C@H]2O[C@H](S)[C@H](O)[C@@H](O)[C@@H]2O)N(C)C1 (stereo partly drawn)", "parasite growth, % of DMSO control": "29.2%"}
{"molecule": "CN([C@@H](Cc1ccc(O[S+](=O)([O-])c2cccc3cnccc23)cc1)C(=O)N1CCN(C(=O)OCc2ccccc2)CC1)[S+](=O)([O-])c1cccc2cnccc12", "parasite growth, % of DMSO control": "4.76%"}
{"molecule": "Cc1nc2c(C#N)cccc2n1-c1ccc(C(=O)NC2CC2)s1", "parasite growth, % of DMSO control": "6.59%"}

* * *

- targetUnderTest: Retinoic acid receptor RXR-alpha (Homo sapiens)
- method: qHTS assay for small molecule antagonists of retinoid X receptor alpha signaling (AID 588546);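 further: cells stimulated with 9-cis-retinoic acid as agonist; on the % scale 0 is the no-effect control and ±100 the full control effect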
- details: HEK293T RXRa-UAS-bla, beta-lactamase ratio, antagonist mode
Results filed as inconclusive are left out.
Consider the following molecules and their measured max response readings.

{"molecule": "C[C@]12CCC(=O)C=C1CC[C@@H]1[C@@H]2[C@@H](O)C[C@]2(C=O)[C@@H](C(=O)CO)CC[C@@H]12", "max response [%]": 1.07}
{"molecule": "CCCCOC(=O)c1ccccc1", "max response [%]": 3.76}
{"molecule": "CCCCCCCCCCCC(=O)N(C)CC(=O)O", "max response [%]": 6.82}
{"molecule": "CCCCCCCC(=O)OC", "max response [%]": -8.88}
{"molecule": "C=C(C)C(=O)OCCCCCCCCCCCCCCCC", "max response [%]": -1.04}
{"molecule": "COC(=O)c1ccc(I)cc1S(=O)(=O)NC(=O)Nc1nc(C)nc(OC)n1", "max response [%]": -12.1}
{"molecule": "CCOCCOCCOCC", "max response [%]": -12.1}
{"molecule": "CCOC(=O)CC(O)(CC(=O)OCC)C(=O)OCC", "max response [%]": -3.42}
{"molecule": "C[Si]1(C)O[Si](C)(C)O[Si](C)(C)O1", "max response [%]": 2.26}
{"molecule": "CN(C)CCOCCN(C)C", "max response [%]": -8.75}
{"molecule": "CCCN(CCC)c1c([N+](=O)[O-])cc(C(F)(F)F)c(N)c1[N+](=O)[O-]", "max response [%]": -37.1}
{"molecule": "CC1(C)C(=O)N(Br)C(=O)N1Br", "max response [%]": -10.9}
{"molecule": "CC(C)C(=O)OCC(C)(C)C(O)C(C)C (configuration not stated)", "max response [%]": -10.9}
{"molecule": "CO[Si](CCCNCCN)(OC)OC", "max response [%]": 2.04}
{"molecule": "COC(=O)c1c(Cl)nn(C)c1S(=O)(=O)NC(=O)Nc1nc(OC)cc(OC)n1", "max response [%]": -14.3}
{"molecule": "C=C[Si](C)(C)O[Si](C)(C)C=C", "max response [%]": -0.957}
{"molecule": "OCCC(F)(F)C(F)(F)C(F)(F)C(F)(F)C(F)(F)C(F)(F)C(F)(F)C(F)(F)F", "max response [%]": -9.11}
{"molecule": "C=CCOC(=O)CC(C)C", "max response [%]": 1.64}
{"molecule": "CCCCCCCCCCCCCCO", "max response [%]": 6.98}
{"molecule": "CN=C(N)NCC1CCOC1 (configuration not stated)", "max response [%]": 8.29}
{"molecule": "O=C(O)CN(CCO)CCN(CC(=O)O)CC(=O)O", "max response [%]": -2.39}
{"molecule": "c1ccc(OCCOc2ccccc2)cc1", "max response [%]": -10.1}
{"molecule": "CCCCC(CC)C(=O)OCCOCCOCCOC(=O)C(CC)CCCC (configuration not stated)", "max response [%]": -7.08}
{"molecule": "CCC(C)OC(=O)N1CCCCC1CCO (configuration not stated)", "max response [%]": 3.95}
{"molecule": "CC1(C)CC(NCCCCCCNC2CC(C)(C)NC(C)(C)C2)CC(C)(C)N1", "max response [%]": 2.64}
{"molecule": "Cn1sccc1=O", "max response [%]": 7.99}
{"molecule": "CO[Si](CCCOCC1CO1)(OC)OC (configuration not stated)", "max response [%]": -3}
{"molecule": "Cc1ccc(C(C)(C)C)c(O)c1", "max response [%]": -3.16}
{"molecule": "CC(C)(C)c1ccc(C(=O)O)cc1", "max response [%]": -3.02}
{"molecule": "COc1ccc(OC)c(OC)c1", "max response [%]": 2.37}
{"molecule": "C[Si](Cl)(Cl)[Si](C)(Cl)Cl", "max response [%]": -4.71}
{"molecule": "CC(C)O.CC(C)O.CC(C)O.CC(C)O.[Ti]", "max response [%]": 1.54}
{"molecule": "COc1ccccc1NC(=O)CC(C)=O", "max response [%]": -16}
{"molecule": "Nc1ccc(Nc2ccccc2)cc1", "max response [%]": -27.9}
{"molecule": "CCCCOCCOCCOCCO", "max response [%]": -1.08}
{"molecule": "CCCCCCCCCCCCCCN", "max response [%]": -5.01}
{"molecule": "CC1(C)C(=O)NC(=O)N1CO", "max response [%]": -4.89}
{"molecule": "COC(=O)C(C)Oc1ccc(Oc2ncc(C(F)(F)F)cc2Cl)cc1 (configuration not stated)", "max response [%]": -74.4}
{"molecule": "CC1(C)[C@@H](C=C(Cl)Cl)[C@@H]1C(=O)OCc1cccc(Oc2ccccc2)c1", "max response [%]": -8.61}
{"molecule": "C[Si](C)(C)N[Si](C)(C)C", "max response [%]": 1.24}
{"molecule": "c1cc(-c2ccncc2)ccn1", "max response [%]": -37.6}
{"molecule": "CCCCCCCCCC(=O)OC", "max response [%]": 2.82}
{"molecule": "Fc1ccc(Br)cc1", "max response [%]": 4.33}
{"molecule": "CC(C)(C)c1cccc(C(C)(C)C)c1O", "max response [%]": -0.1}
{"molecule": "O=C(O)C(c1ccc(Cl)cc1)c1ccc(Cl)cc1", "max response [%]": 12.2}
{"molecule": "CC(C)OB(OC(C)C)OC(C)C", "max response [%]": 0.387}
{"molecule": "c1ccc2c(c1)Cc1ccccc1-2", "max response [%]": -2.65}
{"molecule": "C=C(C)C(=O)OCCOC(=O)C(=C)C", "max response [%]": -2.81}
{"molecule": "CC(=O)c1c(C)c([N+](=O)[O-])c(C(C)(C)C)c([N+](=O)[O-])c1C", "max response [%]": -4.43}
{"molecule": "CCCCCCCC[Si](OCC)(OCC)OCC", "max response [%]": -6.63}
{"molecule": "CCCCCCCC[Si](Cl)(Cl)Cl", "max response [%]": -13.9}
{"molecule": "Cc1c(Cl)cccc1Cl", "max response [%]": -5.5}
{"molecule": "CCCCCCCCCCCCCCCCN(C)C", "max response [%]": -24.8}
{"molecule": "CNc1nc(=O)n(C2CCC(O)CC2)c(=O)n1C (configuration not stated)", "max response [%]": 4.66}
{"molecule": "CCCC/C=C\\CCCCCCCCCC=O", "max response [%]": 6.53}
{"molecule": "C=C(C)C(=O)OCCC[Si](Cl)(Cl)Cl", "max response [%]": 9.64}
{"molecule": "Cc1ccc2c(c1)C(=O)OC2=O", "max response [%]": -14.4}
